- test-system: recombinant human Myt1 (Homo sapiens (Human), UniProt Q99640)
- Sequence (Q99640 whole entry): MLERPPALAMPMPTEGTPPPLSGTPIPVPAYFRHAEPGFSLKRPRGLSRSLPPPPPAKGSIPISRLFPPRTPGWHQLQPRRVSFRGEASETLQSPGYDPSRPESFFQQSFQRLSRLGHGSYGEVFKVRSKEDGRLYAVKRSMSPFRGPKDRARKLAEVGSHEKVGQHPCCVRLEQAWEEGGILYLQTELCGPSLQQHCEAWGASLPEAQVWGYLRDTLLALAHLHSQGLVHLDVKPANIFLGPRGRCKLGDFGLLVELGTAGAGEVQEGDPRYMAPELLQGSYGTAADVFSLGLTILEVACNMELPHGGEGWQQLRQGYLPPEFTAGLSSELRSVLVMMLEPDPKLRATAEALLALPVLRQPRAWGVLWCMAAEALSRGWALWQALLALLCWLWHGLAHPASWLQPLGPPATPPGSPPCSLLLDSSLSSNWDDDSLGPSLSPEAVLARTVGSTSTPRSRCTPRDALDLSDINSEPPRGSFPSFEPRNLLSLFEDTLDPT
- procedure-details: Myt1 enzymatic assay (ADP-Glo kinase assay)
- setup-conditions: 18 nM enzyme, 10 uM ATP
pIC50: −log10 of the molar value.
Recorded pIC50 by entry

Worked examples follow.
Cc1ccc(O)c(C)c1-n1c(N)c(C(N)=O)c2cc(Br)cnc21	> 8.00
Cc1ccc(O)c(C)c1-n1c(N)c(C(N)=O)c2nc(-c3nc(C)c(C)s3)cnc21	> 8.00
Cc1ccc(O)c(C)c1-n1c(N)c(C(N)=O)c2cc(C(C)(C)O)cnc21	> 8.00
Cc1ccc(O)c(C)c1-n1cc(C(N)=O)c2cc(Cl)ccc21	6.63

Q) Please look up its pIC50: "Cc1ccc(O)c(C)c1-n1c(N)c(C(N)=O)c2nc(C3CCCCC3)cnc21"
A) > 8.00

Q) Please look up its pIC50: "Cc1ccc(O)c(Br)c1-n1c(N)c(C(N)=O)c2cc(Cl)cnc21"
A) > 8.00
